System: MV4-11
RUN_DESCRIPTION: Antiproliferative activity against BRD4-sensitive human MV411 cells after 72 hrs by CCK8 assay
Format: functional, cell-based
STUDY_CONDITIONS: MV4-11, 72 h
pIC50: −log10 of the molar value.
Label class 1 when pIC50 is at or above 6; otherwise label class 0.

Enquiry: Is the recorded value of pIC50 equal to or greater than 6 for this compound? CCS(=O)(=O)Nc1ccc(Oc2ccc(F)cc2F)c(-c2cn(C)c(=O)c3[nH]ccc23)c1 [MIVEBRESIB]
Return: class 1

Enquiry: Is the recorded value of pIC50 equal to or greater than 6 for this compound? CCS(=O)(=O)c1ccc(Oc2ccc(F)cc2F)c(-c2cn(C)c(=O)c3cncn23)c1
Return: class 1

Enquiry: Is the recorded value of pIC50 equal to or greater than 6 for this compound? Cn1cc(-c2cc(S(C)(=O)=O)ccc2Oc2cccc(NCc3ccc(C#N)cc3)c2)n2cncc2c1=O
Return: class 0

Enquiry: Is the recorded value of pIC50 equal to or greater than 6 for this compound? CCS(=O)(=O)c1ccc(Oc2cccc(NCc3ccc(NC(C)=O)cc3)c2)c(-c2cn(C)c(=O)c3cncn23)c1
Return: class 1

Enquiry: Is the recorded value of pIC50 equal to or greater than 6 for this compound? Cc1sc2c(c1C)C(c1ccc(Cl)cc1)=N[C@@H](CC(=O)OC(C)(C)C)c1nnc(C)n1-2
Return: class 1

Enquiry: Is the recorded value of pIC50 equal to or greater than 6 for this compound? CCS(=O)(=O)c1ccc(Oc2cccc(NCc3ccc(C#N)cc3)c2)c(-c2cn(C)c(=O)c3cncn23)c1
Return: class 1

Enquiry: Is the recorded value of pIC50 equal to or greater than 6 for this compound? Cn1cc(-c2cc(S(C)(=O)=O)ccc2Oc2ccc(F)cc2F)n2cncc2c1=O
Return: class 0

###

TEST_TARGET: Bromodomain-containing protein 4 (Homo sapiens, UniProt O60885)
RUN_DESCRIPTION: Inhibition of BRD4-BD2 (333 to 460 residues) (unknown origin) using histone H4 peptide as substrate preincubated for 15 mins followed by addition of substrate measured after 60 mins by AlphaScreen assay
PARAMETER: IC50 (nM)
// units = nM; emit number, no label

So for Cn1cc(-c2cc(S(C)(=O)=O)ccc2Oc2ccc(F)cc2F)n2cncc2c1=O , the logged IC50 turned out to be 580

So for CCS(=O)(=O)c1ccc(Oc2cccc(NS(=O)(=O)c3ccc(OC)cc3)c2)c(-c2cn(C)c(=O)c3cncn23)c1 , the logged IC50 turned out to be 140

So for CCS(=O)(=O)c1ccc(Oc2cccc(NS(=O)(=O)c3ccccc3F)c2)c(-c2cn(C)c(=O)c3cncn23)c1 , the logged IC50 turned out to be 170

So for CCS(=O)(=O)c1ccc(Oc2cccc(NCc3ccc(NC(C)=O)cc3)c2)c(-c2cn(C)c(=O)c3cncn23)c1 , the logged IC50 turned out to be 40

###

TEST_TARGET: Bromodomain-containing protein 4 (Homo sapiens)
RUN_DESCRIPTION: Inhibition of BRD4-BD1 (44 to 168 residues) (unknown origin) using histone H4 peptide as substrate preincubated for 15 mins followed by addition of substrate measured after 60 mins by AlphaScreen assay
PARAMETER: pIC50
// pIC50: -log10(molar conc.)

So for CC(=O)Nc1ccc(CNc2cccc(Oc3ccc(S(C)(=O)=O)cc3-c3cn(C)c(=O)c4cncn34)c2)cc1 , the logged pIC50 turned out to be 6.42

So for CCS(=O)(=O)c1ccc(Oc2cccc(NS(=O)(=O)c3ccc(OC)cc3)c2)c(-c2cn(C)c(=O)c3cncn23)c1 , the logged pIC50 turned out to be 6.70

So for CCS(=O)(=O)c1ccc(Oc2cccc(NS(=O)(=O)c3cccs3)c2)c(-c2cn(C)c(=O)c3cncn23)c1 , the logged pIC50 turned out to be 6.41

So for CCS(=O)(=O)c1ccc(Oc2ccc(F)cc2)c(-c2cn(C)c(=O)c3cncn23)c1 , the logged pIC50 turned out to be 6.70

So for CCS(=O)(=O)c1ccc(Oc2cccc(NCc3ccc(NC(C)=O)cc3)c2)c(-c2cn(C)c(=O)c3cncn23)c1 , the logged pIC50 turned out to be 6.89

So for CCS(=O)(=O)c1ccc(Oc2cccc(NS(=O)(=O)c3ccccc3F)c2)c(-c2cn(C)c(=O)c3cncn23)c1 , the logged pIC50 turned out to be 6.62

So for CCS(=O)(=O)c1ccc(Oc2cccc(NCc3ccc(C#N)cc3)c2)c(-c2cn(C)c(=O)c3cncn23)c1 , the logged pIC50 turned out to be 6.89

So for COc1cccc(CNc2cccc(Oc3ccc(S(C)(=O)=O)cc3-c3cn(C)c(=O)c4cncn34)c2)c1 , the logged pIC50 turned out to be 6.37

So for CCS(=O)(=O)c1ccc(Oc2ccc(F)cc2F)c(-c2cn(C)c(=O)c3cncn23)c1 , the logged pIC50 turned out to be 6.62

So for Cn1cc(-c2cc(S(C)(=O)=O)ccc2Oc2ccc(F)cc2F)n2cncc2c1=O , the logged pIC50 turned out to be 6.28

So for Cn1cc(-c2cc(S(C)(=O)=O)ccc2Oc2cccc(NCc3ccc(F)cc3)c2)n2cncc2c1=O , the logged pIC50 turned out to be 6.17

So for CCS(=O)(=O)Nc1ccc(Oc2ccc(F)cc2F)c(-c2cn(C)c(=O)c3[nH]ccc23)c1 [MIVEBRESIB] , the logged pIC50 turned out to be 7.13

So for Cn1cc(-c2cc(S(C)(=O)=O)ccc2Oc2cccc(NCc3ccc(C#N)cc3)c2)n2cncc2c1=O , the logged pIC50 turned out to be 6.46
